Source of measurements: patent US20250026827A1

# targetOrTestSystem: T1, human SIRPβ1 isoform 1 on cells (human, UniProt O00241 30-398)
# T1 construct: On CHO cells (low level), on BWZ/BW5147.G.1.4 cells (reporter cells co-express human DAP12) or on primary human myeloid cells; also called huSIRPβ1; BWZ-huSIRPβ1
# T1 sequence (O00241 30-398): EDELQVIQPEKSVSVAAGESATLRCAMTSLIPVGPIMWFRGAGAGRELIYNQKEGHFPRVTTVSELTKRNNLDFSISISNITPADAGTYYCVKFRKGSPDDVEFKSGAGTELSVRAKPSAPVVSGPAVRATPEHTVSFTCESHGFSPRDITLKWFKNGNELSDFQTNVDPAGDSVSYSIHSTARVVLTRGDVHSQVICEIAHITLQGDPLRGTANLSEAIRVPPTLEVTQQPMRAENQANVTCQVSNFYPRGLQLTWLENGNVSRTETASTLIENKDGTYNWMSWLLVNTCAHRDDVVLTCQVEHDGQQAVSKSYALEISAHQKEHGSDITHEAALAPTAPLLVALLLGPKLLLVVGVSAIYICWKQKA
# protocolDescription: cell binding titration; target not given

{"columns": ["binder", "EC50 (pM)"],
 "data": [
  ["SB-2-7 (antibody, V domains shown, IgG) VH: EVQLLESGGGLVQPGGSLRLSCAASGFTFARYGMHWVRQAPGKGLEWVSAISGLAGPTYADSVKGRFTISRDNSKNTLYLQMNSLRAEDTAVYYCARDQTAAAAIWGMDVWGQGTTVTVSS VL: EVVLTQSPGTLSLSPGERATLSCRASQSVSSSYLAWYQQKPGQAPRLLIYGASSRATGIPDRFSGSGSGTDFTLTISRLEPEDFAVYYCQQSSSHPFTFGGGTKVEIK", 132]
]}
